Test system: KO-52 cells
Assay: Proliferation assay, spheroid-like growth, KO-52 (MLL wildtype control cell line)
Assay type: cell-based, human
Conditions: Homo sapiens, 192 h, KO-52 control cells, 8 days, confluence as measure of spheroid size; read-out: spheroid assay_OneTime KO-52 IC50
Method: The anti-proliferative effect of menin/MLL protein/protein interaction inhibitor test compounds was assessed in human leukemia cell lines. […] In order to assess the anti-proliferative effects, 200 MOLM14 cells, or 300 KO-52 cells were seeded in 200 μl media per well in 96-well round bottom, ultra-low attachment plates (Costar, catalogue number 7007). […] Spheroid like growth was measured in real-time by live-cell imaging (IncuCyteZOOM, Essenbio, 4× objective) acquiring images at day 8. […]
pIC50: −log10 of the molar value.

compound	system	pIC50
CC(C)C([C@H]1C[C@@H](Nc2ccnc(N)n2)C1)N1CC2(CCN(c3ncnnc3Oc3ccc(F)cc3-c3cncnc3C3CC3)C2)C1 (stereo partly drawn)	KO-52 cells	5.70
CC(C)[C@@H]([C@H]1C[C@H](N2C[C@H]3COC[C@H]3C2)C1)N1CC2(CCN(c3ncnnc3Oc3ccc(F)cc3-c3cncnc3C3CC3)C2)C1 (single isomer, unassigned)	KO-52 cells	5.05
CC(C)[C@H]([C@H]1C[C@@H](N2CC[C@H](C(C)(C)O)C2)C1)N1CC2(CCN(c3ncnnc3Oc3ccc(F)cc3-c3cncnc3C3CC3)C2)C1 (single isomer, unassigned)	KO-52 cells	5.36

====

Biological target: menin/MLL (terbium chelate-labeled menin, FITC-MBM1 peptide) (Homo sapiens, UniProt O00255, T541A)
Construct: Menin (a.a 1-610-6xhis tag)
Sequence (O00255 with tags, fused parts or gaps T541A): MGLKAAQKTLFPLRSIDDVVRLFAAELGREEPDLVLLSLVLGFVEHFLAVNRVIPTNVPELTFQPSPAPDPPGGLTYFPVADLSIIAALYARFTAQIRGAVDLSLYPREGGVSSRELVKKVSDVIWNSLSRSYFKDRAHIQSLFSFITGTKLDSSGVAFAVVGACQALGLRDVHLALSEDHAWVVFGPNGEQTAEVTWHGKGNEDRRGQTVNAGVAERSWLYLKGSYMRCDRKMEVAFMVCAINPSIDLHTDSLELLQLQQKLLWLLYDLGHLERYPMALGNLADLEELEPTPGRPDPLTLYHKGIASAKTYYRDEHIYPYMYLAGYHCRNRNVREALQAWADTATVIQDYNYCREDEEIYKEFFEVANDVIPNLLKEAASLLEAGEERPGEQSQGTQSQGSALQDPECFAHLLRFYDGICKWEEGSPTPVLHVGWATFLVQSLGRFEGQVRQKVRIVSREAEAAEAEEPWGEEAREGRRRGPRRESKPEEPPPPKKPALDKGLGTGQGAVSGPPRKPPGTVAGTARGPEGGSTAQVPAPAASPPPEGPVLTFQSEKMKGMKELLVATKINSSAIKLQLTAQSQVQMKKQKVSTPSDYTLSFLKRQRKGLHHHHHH
Experiment: Menin/MLL homogenous time-resolved fluorescence (HTRF) assay
Type: binding
Conditions: 30 min incubation
pIC50: −log10 of the molar value.
parameter measured: pIC50

compound	measured number
CNC(=O)[C@H]1CCN([C@H]2C[C@@H]([C@H](C(C)C)N3CC4(CCN(c5ncnnc5Oc5ccc(F)cc5-c5cnc(C)nc5C5CC5)C4)C3)C2)C1	9.89
CC(=O)N[C@H]1CCN([C@H]2C[C@@H]([C@H](C(C)C)N3CC4(CCN(c5ncnnc5Oc5ccc(F)cc5-c5cnc(C)nc5C5CC5)C4)C3)C2)C1	10.57
CC(=O)N1CC2CN([C@H]3C[C@H]([C@@H](C(C)C)N4CC5(CCN(c6ncnnc6Oc6ccc(F)cc6-c6cncnc6C6CC6)C5)C4)C3)CC2C1 (single isomer, unassigned)	9.70
CC(=O)N1CCN([C@H]2C[C@H]([C@H](C(C)C)N3CC4(CCN(c5ncnnc5Oc5ccc(F)cc5-c5cnncc5C5CC5)C4)C3)C2)CC1 (single isomer, unassigned)	9.00
Cc1noc(C2CC2)c1-c1cc(F)ccc1Oc1nncnc1N1CCC2(C1)CN([C@H](C(C)C)C1CC(NC(=O)OC(C)(C)C)C1)C2 (some centres unmarked)	9.27

====

Target: menin/MLL (terbium chelate-labeled menin, FITC-MBM1 peptide) (Homo sapiens, UniProt O00255, T541A)
Construct: Menin (a.a 1-610-6xhis tag)
Experiment: Menin/MLL homogenous time-resolved fluorescence (HTRF) assay
Settings: 30 min incubation
pIC50: −log10 of the molar value.
parameter measured: pIC50

molecule	parameter measured	measured number
CCOC(=O)c1coc(N[C@H]2C[C@@H]([C@@H](C(C)C)N3CC4(CCN(c5ncnnc5Oc5ccc(F)cc5-c5cncnc5C5CC5)C4)C3)C2)n1 (single isomer, unassigned)	pIC50	9.82
CC(C)[C@@H]([C@H]1C[C@@H](N2CC3(CCO3)C2)C1)N1CC2(CCN(c3ncnnc3Oc3ccc(F)cc3-c3ncncc3C3CC3)C2)C1 (single isomer, unassigned)	pIC50	10.00
CC(C)[C@H]([C@H]1C[C@H](N2C[C@H]3COC[C@H]3C2)C1)N1CC2(CCN(c3ncnnc3Oc3ccc(F)cc3-c3ncccc3C3CC3)C2)C1 (single isomer, unassigned)	pIC50	10.00
CC(C)[C@H]([C@H]1C[C@H](N2CCC3(CCO3)CC2)C1)N1CC2(CCN(c3ncnnc3Oc3ccc(F)cc3-c3cnncc3C3CC3)C2)C1 (single isomer, unassigned) [Compound 280b]	pIC50	8.62
CC(C)[C@H]([C@H]1C[C@@H](N2CCC(F)C(O)C2)C1)N1CC2(CCN(c3ncnnc3Oc3ccc(F)cc3-c3cncnc3C3CC3)C2)C1 (single isomer, unassigned)	pIC50	9.52

====

Target: menin/MLL (terbium chelate-labeled menin, FITC-MBM1 peptide) (Homo sapiens, UniProt O00255, T541A)
Construct: Menin (a.a 1-610-6xhis tag)
Experiment: Menin/MLL homogenous time-resolved fluorescence (HTRF) assay
Assay type: binding
Conditions: 30 min incubation

compound	IC50 / nM
CC(C)[C@H](C1CCN(C[C@H]2C[C@@H](O)C2)CC1)N1CC2(CCN(c3ncnnc3Oc3ccc(F)cc3-c3cncnc3C3CC3)C2)C1 (single isomer, unassigned) [Compound 357]	0.1
CC(C)[C@@H]([C@H]1CC[C@@H](NC(=O)C2CC2)C1)N1CC2(CCN(c3ncnnc3Oc3ccc(F)cc3-c3cncnc3C3CC3)C2)C1 (single isomer, unassigned) [Compound 344]	0.1
COC1(C)CN([C@H]2C[C@H]([C@H](C(C)C)N3CC4(CCN(c5ncnnc5Oc5ccc(F)cc5-c5nnccc5C5CC5)C4)C3)C2)C1 (single isomer, unassigned) [Compound 264]	0.8
CC(=O)Nc1cc(N[C@H]2C[C@@H]([C@@H](C(C)C)N3CC4(CCN(c5ncnnc5Oc5ccc(F)cc5-c5cncnc5C5CC5)C4)C3)C2)ncn1 (single isomer, unassigned) [Compound 418]	0.07
CC(C)[C@@H]([C@H]1C[C@@H](N2CC[C@@H](F)C2)C1)N1CC2(CCN(c3ncnnc3Oc3ccc(F)cc3-c3nnccc3C3CC3)C2)C1 (single isomer, unassigned) [Compound 262]	0.1
CC(C)[C@@H]([C@H]1C[C@@H](N2CCC(S(C)(=O)=O)CC2)C1)N1CC2(CCN(c3ncnnc3Oc3ccc(F)cc3-c3cccnc3C3CC3)C2)C1 (single isomer, unassigned) [Compound 23]	0.3
CO[C@H]1CCN([C@H]2C[C@H]([C@H](C(C)C)N3CC4(CCN(c5ncnnc5Oc5ccc(F)cc5-c5cnncc5C5CC5)C4)C3)C2)C1 (single isomer, unassigned) [Compound 109]	0.1
CC(C)C(C1CCN(CC2COC2)CC1)N1CC2(CCN(c3ncnnc3Oc3ccc(F)cc3-c3ncncc3C3CC3)C2)C1 (stereo not shown) [Compound 203]	0.8
CC(C)[C@H]([C@H]1C[C@@H](NC2(C)CCS(=O)(=O)CC2)C1)N1CC2(CCN(c3ncnnc3Oc3ccc(F)cc3-c3cncnc3C3CC3)C2)C1 (single isomer, unassigned) [Compound 44]	0.1
CC(C)[C@H]([C@H]1C[C@@H](N(C)C)C1)N1CC2(CCN(c3ncnnc3Oc3ccc(F)cc3-c3ncccc3C3CC3)C2)C1 (single isomer, unassigned) [Compound 147]	0.1

====

Tested on: MOLM14 cells
Assay: Proliferation assay, spheroid-like growth, MOLM14 (MLL-AF9 rearranged)
Type: cell-based, human
Settings: Homo sapiens, MOLM-14, 192 h, 8 days, confluence as measure of spheroid size, read-out: spheroid assay_OneTime MOLM14 IC50

molecule	IC50
CC(=O)N[C@H]1C[C@@H]([C@@H](C(C)C)N2CC3(CCN(c4ncnnc4Oc4ccc(F)cc4-c4nncnc4C4CC4)C3)C2)C1 (single isomer, unassigned)	56 nM
CC(C)[C@@H]([C@H]1C[C@@H](NC(=O)C2CC2)C1)N1CC2(CCN(c3ncnnc3Oc3ccc(F)cc3-c3cccc(=O)n3C3CC3)C2)C1 (single isomer, unassigned)	> 940 nM
CC(C)[C@H]([C@H]1C[C@]2(COC(=O)N2)C1)N1CC2(CCN(c3ncnnc3Oc3ccc(F)cc3-c3ncccc3C3CC3)C2)C1 (single isomer, unassigned)	> 940 nM
